Molecular target: Metabotropic glutamate receptor 4 (Rattus norvegicus)
Sequence (P31423 whole entry): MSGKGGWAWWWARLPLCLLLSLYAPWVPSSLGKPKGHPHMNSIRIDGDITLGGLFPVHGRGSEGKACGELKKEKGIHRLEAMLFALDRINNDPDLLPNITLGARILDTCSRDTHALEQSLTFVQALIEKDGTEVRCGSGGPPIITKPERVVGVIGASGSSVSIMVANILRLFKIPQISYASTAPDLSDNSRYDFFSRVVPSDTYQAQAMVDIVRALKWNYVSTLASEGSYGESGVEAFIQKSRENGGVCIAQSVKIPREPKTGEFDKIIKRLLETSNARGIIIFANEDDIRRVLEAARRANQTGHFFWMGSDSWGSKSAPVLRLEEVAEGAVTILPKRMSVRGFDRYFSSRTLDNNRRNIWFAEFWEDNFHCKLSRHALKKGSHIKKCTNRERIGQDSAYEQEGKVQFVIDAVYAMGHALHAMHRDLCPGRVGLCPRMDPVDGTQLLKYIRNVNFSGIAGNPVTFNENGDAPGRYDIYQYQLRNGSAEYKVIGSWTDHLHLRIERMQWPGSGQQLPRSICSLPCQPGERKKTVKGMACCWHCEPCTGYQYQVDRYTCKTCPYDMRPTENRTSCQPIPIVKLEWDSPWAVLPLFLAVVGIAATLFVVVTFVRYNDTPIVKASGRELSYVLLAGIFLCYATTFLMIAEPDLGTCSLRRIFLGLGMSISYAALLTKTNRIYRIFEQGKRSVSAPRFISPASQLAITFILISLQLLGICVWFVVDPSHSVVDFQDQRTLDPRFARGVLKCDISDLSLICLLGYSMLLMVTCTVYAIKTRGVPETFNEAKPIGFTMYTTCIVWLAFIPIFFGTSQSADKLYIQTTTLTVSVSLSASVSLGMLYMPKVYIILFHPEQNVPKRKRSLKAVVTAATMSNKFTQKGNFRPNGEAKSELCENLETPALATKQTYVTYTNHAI
Assay: Negative allosteric modulation of rat mGlu4 receptor expressed in HEK cells harboring GIRK assessed as reduction in glutamate-induced thallium flux preincubated for 2.3 mins followed by glutamate addition measured after 2.6 mins by BTC-AM-dye based fluorescence assay
observation-type: IC50

# smiles-entry, result
records = [
    ("NC(=O)c1cc(-c2ccc(F)cc2)n2nc(COc3ccnc(C(F)(F)F)c3)cc2n1", "> 30 µM"),
]

Kindly consider the entry below.
Q: Answer with reported IC50 of C[C@@H]1CN(Cc2cc3nc(C(N)=O)cc(-c4ccc(F)cc4)c3s2)C[C@H](C)O1
Result: > 30 µM

* * *

Kp for assorted compounds
Assay: Brain to plasma partition coefficient, Kp of the compound in Sprague-Dawley rat at 0.2 mg/kg, iv administered as cassette dose by LC-MS/MS analysis
Assay type: ADME, organism-based
Settings: brain and plasma

Study these solved cases before continuing.
# smiles-entry, result
rows = [
    ("Cc1ccc(OCc2cc3nc(C(N)=O)cc(-c4ccc(F)cc4)c3s2)c(C)n1", "> 2"),
    ("COc1ccc(-c2cc(C(N)=O)nc3cc(COc4ccc(C(F)(F)F)nc4)nn23)c(F)c1", "2.5 to 2.7"),
    ("NC(=O)c1cc(-c2ccc(F)cc2)n2nc(CCc3ccnc(C(F)(F)F)c3)cc2n1", 4.25),
]

Kindly consider the entry below.
Q: Answer with reported Kp of COc1ccc(-c2cc(C(N)=O)nc3cc(COc4ccnc(C(F)(F)F)c4)nn23)c(F)c1
Result: 2.5 to 2.7

* * *

Biological target: Metabotropic glutamate receptor 8 (Rattus norvegicus, UniProt P70579)
Sequence (P70579 whole entry): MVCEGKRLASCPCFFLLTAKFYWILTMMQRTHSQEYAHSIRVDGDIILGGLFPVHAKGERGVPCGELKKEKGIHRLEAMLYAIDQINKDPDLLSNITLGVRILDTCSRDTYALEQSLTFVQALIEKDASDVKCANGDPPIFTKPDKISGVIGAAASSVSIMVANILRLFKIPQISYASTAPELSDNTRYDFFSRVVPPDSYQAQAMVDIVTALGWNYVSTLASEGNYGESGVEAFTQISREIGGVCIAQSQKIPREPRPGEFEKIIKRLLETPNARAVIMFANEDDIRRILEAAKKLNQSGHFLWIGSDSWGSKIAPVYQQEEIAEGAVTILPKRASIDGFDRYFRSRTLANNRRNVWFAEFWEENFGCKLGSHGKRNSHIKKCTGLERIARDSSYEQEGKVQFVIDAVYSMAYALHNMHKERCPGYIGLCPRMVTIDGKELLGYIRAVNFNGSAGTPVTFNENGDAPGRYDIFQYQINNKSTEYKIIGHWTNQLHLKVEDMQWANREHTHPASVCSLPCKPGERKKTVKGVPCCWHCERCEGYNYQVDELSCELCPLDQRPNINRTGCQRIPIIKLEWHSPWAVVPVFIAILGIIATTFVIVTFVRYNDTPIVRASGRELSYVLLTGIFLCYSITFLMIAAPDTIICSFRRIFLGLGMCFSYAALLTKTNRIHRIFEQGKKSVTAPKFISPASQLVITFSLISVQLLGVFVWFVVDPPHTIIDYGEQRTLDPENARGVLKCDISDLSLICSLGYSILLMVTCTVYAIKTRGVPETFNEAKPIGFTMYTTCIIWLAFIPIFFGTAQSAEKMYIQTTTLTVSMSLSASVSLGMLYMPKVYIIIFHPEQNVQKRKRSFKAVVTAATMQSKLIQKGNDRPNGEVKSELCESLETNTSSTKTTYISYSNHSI
Assay: Negative allosteric modulation of rat mGlu8 receptor expressed in HEK cells harboring GIRK assessed as reduction in glutamate-induced thallium flux preincubated for 2.3 mins followed by glutamate addition measured after 2.6 mins by BTC-AM-dye based fluorescence assay
observation-type: IC50

Q: Lab note: Metabotropic glutamate receptor 8 (Rattus norvegicus, UniProt P70579) assay, enter IC50 for NC(=O)c1cc(-c2ccc(F)cc2)n2nc(COc3ccnc(C(F)(F)F)c3)cc2n1 here
Result: > 30 µM

Q: Lab note: Metabotropic glutamate receptor 8 (Rattus norvegicus, UniProt P70579) assay, enter IC50 for C[C@@H]1CN(Cc2cc3nc(C(N)=O)cc(-c4ccc(F)cc4)c3s2)C[C@H](C)O1 here
Result: > 30 µM

* * *

Experiment: Volume of distribution at steady state in Sprague-Dawley rat at 0.2 mg/kg, iv administered as cassette dose by LC-MS/MS analysis
Type: ADME, organism-based
Settings: in vivo, read-out: Vdss
observation-type: Vd (L/kg)

(P) NC(=O)c1cc(-c2ccc(F)cc2)n2nc(COc3ccnc(C(F)(F)F)c3)cc2n1
(Q) COc1ccc(-c2cc(C(N)=O)nc3cc(COc4cnc(C)nc4)sc23)cc1
Q: Hi, I'm comparing two records. Which one has the lower Vd, P or Q ? Refer to your chosen item by its label in the answer.
Result: P
(P: 3.31 L/kg, Q: 6.49 L/kg)

* * *

Target: Metabotropic glutamate receptor 7 (Rattus norvegicus)
Sequence (P35400 whole entry): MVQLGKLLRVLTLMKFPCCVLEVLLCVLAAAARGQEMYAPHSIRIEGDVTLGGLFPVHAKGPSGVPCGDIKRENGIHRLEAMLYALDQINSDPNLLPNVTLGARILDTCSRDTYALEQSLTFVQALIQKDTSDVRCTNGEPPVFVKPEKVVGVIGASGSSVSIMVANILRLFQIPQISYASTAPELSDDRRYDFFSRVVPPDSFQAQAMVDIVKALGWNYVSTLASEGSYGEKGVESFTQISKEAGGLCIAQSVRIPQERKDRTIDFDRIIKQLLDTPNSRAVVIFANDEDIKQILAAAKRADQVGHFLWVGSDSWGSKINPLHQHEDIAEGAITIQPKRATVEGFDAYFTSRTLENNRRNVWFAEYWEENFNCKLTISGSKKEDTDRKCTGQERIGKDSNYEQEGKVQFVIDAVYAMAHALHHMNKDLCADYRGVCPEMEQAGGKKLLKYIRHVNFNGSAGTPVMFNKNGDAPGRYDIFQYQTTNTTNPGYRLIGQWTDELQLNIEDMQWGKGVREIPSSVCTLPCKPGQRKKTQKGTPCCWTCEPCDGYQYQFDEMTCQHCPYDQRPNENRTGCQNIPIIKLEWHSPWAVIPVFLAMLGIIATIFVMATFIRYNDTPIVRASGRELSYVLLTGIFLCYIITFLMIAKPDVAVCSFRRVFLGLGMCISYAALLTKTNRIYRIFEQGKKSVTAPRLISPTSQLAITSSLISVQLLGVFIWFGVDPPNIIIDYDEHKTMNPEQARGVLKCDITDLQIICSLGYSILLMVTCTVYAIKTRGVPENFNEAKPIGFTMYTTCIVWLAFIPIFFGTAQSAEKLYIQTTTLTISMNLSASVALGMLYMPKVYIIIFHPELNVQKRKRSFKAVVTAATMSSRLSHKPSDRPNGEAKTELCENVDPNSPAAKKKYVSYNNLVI
Assay: Negative allosteric modulation of rat mGlu7 receptor expressed in HEK cells harboring GIRK assessed as reduction in […]-induced thallium flux preincubated for 2.3 mins followed by […] addition measured after 2.6 mins by BTC-AM-dye based fluorescence assay
pIC50: −log10 of the molar value.
observation-type: pIC50

# smiles-entry, observation-type, result
measured = [
    ("NC(=O)c1cc(-c2ccc(F)cc2)n2nc(COc3ccnc(C(F)(F)F)c3)cc2n1", "pIC50", "< 4.52"),
]

Kindly consider the entry below.
Q: Answer with reported pIC50 of C[C@@H]1CN(Cc2cc3nc(C(N)=O)cc(-c4ccc(F)cc4)c3s2)C[C@H](C)O1
Result: < 4.52
